Target: WT mGluR1α (Rattus norvegicus, UniProt P23385)
Construct: expressed in transfected cells; host or cells: HEK293
Sequence (P23385 19-1199): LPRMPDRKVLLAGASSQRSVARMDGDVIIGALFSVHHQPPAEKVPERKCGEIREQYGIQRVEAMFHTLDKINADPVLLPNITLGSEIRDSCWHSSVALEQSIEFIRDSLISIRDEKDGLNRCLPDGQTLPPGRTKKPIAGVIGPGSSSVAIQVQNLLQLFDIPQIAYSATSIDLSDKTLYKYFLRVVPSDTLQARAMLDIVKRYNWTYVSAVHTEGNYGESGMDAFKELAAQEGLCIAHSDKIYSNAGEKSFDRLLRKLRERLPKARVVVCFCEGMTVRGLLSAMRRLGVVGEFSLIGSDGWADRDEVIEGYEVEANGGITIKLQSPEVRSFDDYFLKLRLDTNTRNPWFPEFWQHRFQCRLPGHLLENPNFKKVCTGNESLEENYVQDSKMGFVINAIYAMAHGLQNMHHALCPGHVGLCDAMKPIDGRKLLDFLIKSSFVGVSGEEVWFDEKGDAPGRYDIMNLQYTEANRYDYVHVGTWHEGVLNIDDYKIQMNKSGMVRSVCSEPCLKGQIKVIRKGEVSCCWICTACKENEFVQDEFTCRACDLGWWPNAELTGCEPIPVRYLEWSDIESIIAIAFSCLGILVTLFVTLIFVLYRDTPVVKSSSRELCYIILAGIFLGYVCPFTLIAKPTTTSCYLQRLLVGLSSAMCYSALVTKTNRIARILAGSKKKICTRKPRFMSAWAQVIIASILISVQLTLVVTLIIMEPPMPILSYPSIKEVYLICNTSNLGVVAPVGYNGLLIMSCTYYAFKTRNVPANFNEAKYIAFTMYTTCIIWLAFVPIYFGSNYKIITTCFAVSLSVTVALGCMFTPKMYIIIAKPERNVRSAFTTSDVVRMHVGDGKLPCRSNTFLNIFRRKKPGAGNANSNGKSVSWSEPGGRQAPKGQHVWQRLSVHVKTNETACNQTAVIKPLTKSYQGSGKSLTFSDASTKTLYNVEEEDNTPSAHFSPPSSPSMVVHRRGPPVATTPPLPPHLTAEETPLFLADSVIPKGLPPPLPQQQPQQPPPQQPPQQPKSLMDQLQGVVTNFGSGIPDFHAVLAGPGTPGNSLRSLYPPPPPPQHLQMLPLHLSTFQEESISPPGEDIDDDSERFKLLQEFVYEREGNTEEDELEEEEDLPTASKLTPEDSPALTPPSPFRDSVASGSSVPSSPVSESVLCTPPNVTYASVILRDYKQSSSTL
Experiment: Single cell Fura-2 [Ca^2+]i response in HEK293 cells transiently transfected with WT mGluR1α
Assay type: cell-based
Conditions: 40 μM CPCCOEt; read-out: EC50 of mGluR1α for [Ca^2+]o
pEC50: −log10 of the molar value.
REPORTED_METRIC: pEC50

compound="[Ca+2] [[Ca^2+]o]" data_value=1.54

---

Target: WT mGluR1α (Rattus norvegicus, UniProt P23385)
Construct: expressed in transfected cells; host or cells: HEK293
Assay: Single cell Fura-2 [Ca^2+]i response in HEK293 cells transiently transfected with WT mGluR1α
Type: cell-based
Conditions: Ro 67-4853 0 nM; read-out: EC50 of Ca^2+
REPORTED_METRIC: EC50 (mM)

compound="[Ca+2] [[Ca^2+]o]" data_value=3.5

---

Molecular target: WT mGluR1α (Rattus norvegicus)
Construct: expressed in transfected cells; host or cells: HEK293
Experiment: Single cell Fura-2 [Ca^2+]i response in HEK293 cells transiently transfected with WT mGluR1α
Type: cell-based
Settings: [Ca^2+]o 1.8 mM; read-out: EC50 of Ro 67-4853
REPORTED_METRIC: EC50 (nM)

smi=CCCCOC(=O)NC(=O)C1c2ccccc2Oc2ccccc21 target_desc="WT mGluR1α (Rattus norvegicus)" reported_metric=EC50 data_value=10

---

Biological target: WT mGluR1α (Rattus norvegicus, UniProt P23385)
Construct: expressed in transfected cells; host or cells: HEK293
Assay: Single cell Fura-2 [Ca^2+]i response in HEK293 cells transiently transfected with WT mGluR1α
Type: cell-based
Details: CPCCOEt Conc. 5 (μM); read-out: Response to [Ca^2+]o: EC50
REPORTED_METRIC: EC50

compound="[Ca+2] [[Ca^2+]o]" reported_metric=EC50 data_value="7600 µM"

---

Target: WT mGluR1α (Rattus norvegicus)
Construct: expressed in transfected cells; host or cells: HEK293
Experiment: [^3H]-L-Quis binding to membranes of HEK293 cells expressing WT mGluR1α
Conditions: wild type receptor; read-out: EC50 of [Ca^2+]o for enhancing L-Quis-binding
REPORTED_METRIC: EC50

compound="[Ca+2] [[Ca^2+]o]" reported_metric=EC50 data_value="~300 µM"

---

Target: WT mGluR1α (Rattus norvegicus, UniProt P23385)
Construct: expressed in transfected cells; host or cells: HEK293
Assay: Single cell Fura-2 [Ca^2+]i response in HEK293 cells transiently transfected with WT mGluR1α
Format: cell-based
Conditions: in the presence of 5 μM CPCCOEt; read-out: EC50 of mGluR1α for [Ca^2+]o
REPORTED_METRIC: EC50 (mM)

compound="[Ca+2] [[Ca^2+]o]" reported_metric=EC50 data_value=14.7

---

Target: UniProtKB P23385
Test: [^3H]-L-Quis binding to membranes of HEK293 cells expressing WT mGluR1α
Settings: WT; in the presence of 30 nM [^3H]-L-Quis; read-out: KD, [Ca^2+]o-binding affinity of mGluR1α
pKd: −log10 of the molar value.
REPORTED_METRIC: pKd

compound="[Ca+2] [[Ca^2+]o]" data_value=3.52

Each recorded value in this set is attributed to patent US10449216B2.
